Listing of entries alongside the reported IC50.
testTarget: UniProt:P05067
Sequence (P05067 672-711 limits assumed): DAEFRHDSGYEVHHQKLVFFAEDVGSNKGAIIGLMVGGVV

structureString	unitOfMeasurement	IC50
CNc1ccc(-c2cc3ccc(Cl)cc3[nH]2)cn1	nM	40
Cc1ccc2cc(-c3ccc(-n4ccnc4)nc3)[nH]c2c1	nM	245
COc1ccc2[nH]c(-c3ccc(-n4cncn4)nc3)cc2c1	nM	10
N#Cc1ccc2cc(-c3cnc4[nH]ccc4c3)[nH]c2c1	nM	79
